Numbers sourced from the supplement of paper PMC11061612.

system: HCC-827 (Lung Adenocarcinoma); test: combination Emax (second highest fraction inhibited in the dose matrix, 72 h); higher = more inhibition; extreme values may be limits of the assay
metric name: combination Emax
Numbers only.

Cc1c2c(nn1C)CSCc1cc(n(C)n1)CSc1cc(c3ccccc3c1)OCCCc1c(C(=O)O)n(C)c3c-2c(Cl)ccc13 [AZD5991] + CC1(C)CCC(CN2CCN(c3ccc(C(=O)NS(=O)(=O)c4ccc(NCC5CCOCC5)c([N+](=O)[O-])c4)c(Oc4cnc5[nH]ccc5c4)c3)CC2)=C(c2ccc(Cl)cc2)C1 [Venetoclax] (first compound max 1 µM, 7x7, partner max 1 µM)
0.182
COc1cccc(OCCCN)c1-c1cc(Nc2cnc(C#N)cn2)n[nH]1 [Prexasertib] + Cc1cc2ncnn2cc1Nc1ncc2c(n1)n(C1CCOCC1)c(=O)n2C [AZD7648] (first compound max 1 µM, 7x7, partner max 10 µM)
0.566

As a next step, examine the molecule that follows.
Provide the documented combination Emax with HCC-827 (Lung Adenocarcinoma) as the system for CC1(C)CCC(CN2CCN(c3ccc(C(=O)NS(=O)(=O)c4ccc(NCC5CCOCC5)c([N+](=O)[O-])c4)c(Oc4cnc5[nH]ccc5c4)c3)CC2)=C(c2ccc(Cl)cc2)C1 [Venetoclax] + C[C@@H](Nc1cc(F)cc(F)c1)c1cc(C(=O)N(C)C)cc2c(=O)cc(N3CCOCC3)oc12 [AZD8186] (first compound max 1 µM, 7x7, partner max 3 µM) 0.254
